- System: R275C/beta2Delta
- experiment-description: modulators of BK channel variants, profiling panel, selectivity assay, cell-based, U2OS BacMam, thallium flux, beta subunits (AID 1259406);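 also: initial slope of Thallos dye fluorescence rise after thallium is added; log ratio against the mean of 0.3% DMSO vehicle wells on the same plate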
- conditions-used: at 30 µM
assay-readout: log fold change Tl+ flux
// return a plain number; no unit text

What log fold change Tl+ flux appears in the records for this molecule with R275C/beta2Delta? `Cc1cc2c(NC(=O)c3ccccc3C(=O)O)cccc2nn1`
-0.00027

How about `O=S(=O)(c1ccc(-c2cc(C(F)(F)F)on2)s1)N1CCc2c([nH]c3ccc(F)cc23)C1` ?
0.0168

How about `CC(C)(C)OC(=O)N1CCC(c2nc(-c3ccc(Cl)s3)cs2)CC1` ?
0.0302

How about `O=S(=O)(Cc1nc(-c2ccc3c(c2)OCCO3)cs1)c1ccccn1` ?
0.0317

How about `CC(C)(C)c1cc(-c2nc(-c3ccc(C(F)(F)F)cc3)no2)n(Cc2ccccc2)n1` ?
-0.0138

How about CC12CCC(c3c1nn(-c1ccccc1)c3C(F)(F)F)C2(C)C (stereo unspecified) ?
0.0124

How about COC(=O)CC1(C(=O)OC)Oc2ccc(Br)cc2C(=O)N1c1cccc(Cl)c1Cl (stereo unspecified) ?
0.0176

How about `CC(C)(C)NC(=S)NNc1c(Cl)cncc1Cl` ?
0.00425

How about `COc1nc(C)nc(Cl)c1NC1=NCCN1` ?
-0.005

How about `O=C1CN(N=Cc2ccc([N+](=O)[O-])o2)C(=O)N1` ?
0.0336

How about `O=C(c1ccccc1)c1ccc2c(c1)Cc1ccccc1-2` ?
-0.00396

How about N[C@@H](C(=O)N[C@@H]1C(=O)N2C(C(=O)O)=C(CSc3cn[nH]n3)CS[C@H]12)c1ccc(O)cc1 (tested in a mixture with another compound) ?
0.0029

How about `O=C(NCCSCc1ccco1)c1cncc(Br)c1` ?
0.0453

How about `Cc1nc(-c2ccc(S(=O)(=O)N3CCCN(c4ccc(C(F)(F)F)cn4)CC3)s2)cs1` ?
-0.0332

How about `CCC(=NOc1ccc(C(F)(F)F)cn1)c1ccc(-c2ccccc2F)cc1` ?
0.0154

How about `CCC(=O)NS(=O)(=O)c1ccc(-c2c(-c3ccccc3)noc2C)cc1` ?
-0.00297

How about `O=C(OCCSc1sccc1[N+](=O)[O-])c1ccc(Cl)cc1` ?
0.0149

How about `O=C1c2c(O)cc(O)cc2O[C@H](c2ccc(O)c(O)c2)[C@@H]1O` ?
0.0295

How about `Cn1c(SCc2ccc(C(F)(F)F)cc2)nnc1C(F)(F)F` ?
-0.0607

How about `Cc1cc(NC(=S)N2CCCCCC2)ccc1Br` ?
-0.0104

How about `O=C1CCC(=O)N1c1ccc(S(=O)(=O)NCCCN2CCN(Cc3ccccc3)CC2)cc1` ?
-0.00414

----------
- experiment-description: inhibition of 3D7 malaria parasite growth – strain 3D7 (AID 2306);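 also: 0% = DMSO wells and 100% = chloroquine plus artemisinin control wells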
- conditions-used: P. falciparum 3D7 erythrocytic growth, LDH absorbance, 72 h; at 2 µM; hits give high values
Kindly state growth inhibition for each of the entries shown.
Write it as a number; the unit % goes unstated.

Consider the molecule shown here: CC(C)c1cc2c(cc1O)C(Cc1ccccc1Cl)N(C)CC2 (centres undefined) What is its recorded growth inhibition?
97

How about `Cc1nc2ccc3ccc(CNc4ccc(C(=O)N[C@@H](CCC(=O)O)C(=O)O)c(F)c4)cc3c2c(=O)[nH]1` ?
96

How about `CCN1CCN(c2cc(C)c3cc(NC(=O)c4cccc([N+](=O)[O-])c4)ccc3n2)CC1` ?
99

How about `CN(C)CCOc1ccc(-c2cc(-c3ccnc(N)n3)c(-c3ccc(Cl)c(O)c3)o2)cc1` ?
101

How about `CC(C)C[C@H](NC(=O)c1cc2ccccc2s1)C(=O)N[C@H]1CCN(Cc2ccc(OC[C@@H]3CCCN3C)c3ccccc23)C1` ?
101

How about `Cc1[nH]c(C)c(-c2ccc(Oc3cc(Cl)cc(Cl)c3)cc2)c(=O)c1Cl` ?
96

How about `CC(C)Cc1csc(NC(=O)C=Cc2ccco2)c1C(=O)O` ?
82

How about `CN(C)C(=O)CN1CCN(c2ncnc(N3CCc4c([nH]c5ccccc45)[C@@H]3c3ccc4c(c3)CCO4)n2)CC1` ?
99

How about CCc1cc(Br)c2c(c1)C(NCCCNc1cc(=O)c3ccccc3[nH]1)CCN2 (centres undefined) ?
94
